Values from patent US10239840B2

tested on: HIV; assay: MT4 assay, antiviral HIV activity; format: cell-based; details: MT-4 cells (HTLV-1 transformed), read-out at 96 hours with cell titer glo
Measured endpoint: pIC50
# reply with the number alone; pIC50 is -log10 of concentration in mol/L

Dear colleague, please send me the reported pIC50 for Cc1c(-c2c(C)c3c(c(C)c2[C@H](OC(C)(C)C)C(=O)O)CCN(C(=O)C2CCCCC2)CC3)cc(F)c2c1CCCO2 (atropisomer, axis not shown; (M)) when you can. 7.72

Dear colleague, please send me the reported pIC50 for Cc1c(-c2c(C)c3c(c(C)c2[C@H](OC(C)(C)C)C(=O)O)CCN(C(=O)CC(C)(C)C)CC3)cc(F)c2c1CCCO2 (atropisomer, axis not shown; (M)) when you can. 7.22

Dear colleague, please send me the reported pIC50 for COc1c(F)cccc1C(=O)N1CCc2c(C)c(-c3cc(F)c4c(c3C)CCCO4)c([C@H](OC(C)(C)C)C(=O)O)c(C)c2CC1 (atropisomer, axis not shown; (M)) when you can. 8.30

Dear colleague, please send me the reported pIC50 for COc1ccc(C)cc1C(=O)N1CCc2c(C)c(-c3cc(F)c4c(c3C)CCCO4)c([C@H](OC(C)(C)C)C(=O)O)c(C)c2CC1 (atropisomer, axis not shown; (M)) when you can. 8.40

Dear colleague, please send me the reported pIC50 for Cc1c(-c2c(C)c3c(c(C)c2[C@H](OC(C)(C)C)C(=O)O)CCN(C2CCCCC2)CC3)cc(F)c2c1CCCO2 (atropisomer, axis not shown; (M)) when you can. 7.89

Dear colleague, please send me the reported pIC50 for Cc1c(-c2c(C)c3c(c(C)c2[C@H](OC(C)(C)C)C(=O)O)CCN(C(=O)c2cccc4c2OCC4)CC3)cc(F)c2c1CCCO2 (atropisomer, axis not shown; (M)) when you can. 8.05

Dear colleague, please send me the reported pIC50 for Cc1c(-c2c(C)c3c(c(C)c2[C@H](OC(C)(C)C)C(=O)O)CCN(C(=O)c2cccc(F)c2)CC3)cc(Cl)c2c1CCCO2 (atropisomer, axis not shown; (M)) when you can. 7.57

Dear colleague, please send me the reported pIC50 for COc1ccc(C(=O)N2CCc3c(C)c(-c4cc(F)c5c(c4C)CCCO5)c([C@H](OC(C)(C)C)C(=O)O)c(C)c3CC2)cc1C (atropisomer, axis not shown; (M)) when you can. 7.85

Dear colleague, please send me the reported pIC50 for COc1ccc(F)cc1C(=O)N1CCc2c(C)c(-c3cc(F)c4c(c3C)CCCO4)c([C@H](OC(C)(C)C)C(=O)O)c(C)c2CC1 (atropisomer, axis not shown; (M)) when you can. 8.30

Dear colleague, please send me the reported pIC50 for Cc1c(-c2c(C)c3c(c(C)c2[C@H](OC(C)(C)C)C(=O)O)CCN(Cc2cccc(F)c2)CC3)cc(F)c2c1CCCO2 (atropisomer, axis not shown; (M)) when you can. 7.11

* * *

Answer each item with its documented IC50.
system: HIV; assay: MT4 assay, antiviral HIV activity; format: cell-based; conditions: MT-4 cells (HTLV-1 transformed), read-out at 96 hours with cell titer glo
Write it as a number; the unit µM goes unstated.

Dear colleague, please send me the reported IC50 for Cc1c(-c2c(C)c3c(c(C)c2[C@H](OC(C)(C)C)C(=O)O)CCN(CC2CCCCC2)CC3)cc(F)c2c1CCCO2 (atropisomer, axis not shown; (M)) when you can. 0.01

Dear colleague, please send me the reported IC50 for Cc1c(-c2c(C)c3c(c(C)c2[C@H](OC(C)(C)C)C(=O)O)CCN(S(=O)(=O)C2CCCCC2)CC3)cc(F)c2c1CCCO2 (atropisomer, axis not shown; (M)) when you can. 0.042

Dear colleague, please send me the reported IC50 for Cc1c(-c2c(C)c3c(c(C)c2[C@H](OC(C)(C)C)C(=O)O)CCN(CCC2CCCCC2)CC3)cc(F)c2c1CCCO2 (atropisomer, axis not shown; (M)) when you can. 0.013

Dear colleague, please send me the reported IC50 for COc1ccc(-c2c(C)c3c(c(C)c2[C@H](OC(C)(C)C)C(=O)O)CCN(C(=O)c2cccc(F)c2)CC3)cc1 when you can. 0.076

Dear colleague, please send me the reported IC50 for Cc1ccc(-c2c(C)c3c(c(C)c2[C@H](OC(C)(C)C)C(=O)O)CCN(C(=O)c2cccc(F)c2)CC3)cc1 when you can. 0.034

Dear colleague, please send me the reported IC50 for Cc1c(-c2c(C)c3c(c(C)c2[C@H](OC(C)(C)C)C(=O)O)CCN(C(=O)N2CCCCC2)CC3)cc(F)c2c1CCCO2 (atropisomer, axis not shown; (M)) when you can. 0.009
